test system: HL-60(TB) leukemia; assay: NCI-60 one-dose screen, 48 h (100 = growth as untreated, 0 = no growth, -100 = all killed); conditions: 10 µM unless noted
This is part of a sample that, as a whole, favours compounds with a hit. Of some 83,000 tested, about 20% had one in any assay.
Rule: growth below 90% gives Satisfied. Equal to or above 90% gives Not satisfied.

1) Oc1cccc(-c2nc(N3CCOCC3)c3c4c(sc3n2)CCCC4)c1 :: Satisfied
2) COc1ccc(-c2csc(NC(=O)c3cc(OC)c(OC)c(OC)c3)n2)cc1 :: Not satisfied
3) O=c1ccc2ccc(OCCN3CCCCC3)cc2o1 :: Satisfied
4) COc1ncc(-c2ccc3nc(N)n(-c4ccccc4C(F)(F)F)c(=O)c3c2)cc1S(=O)(=O)Nc1ccc(F)cc1F :: Satisfied
